For each entry below, report its EC50 value.
TGT: CB2 (Homo sapiens, UniProt P34972)
Sequence (P34972 whole entry, species assumed): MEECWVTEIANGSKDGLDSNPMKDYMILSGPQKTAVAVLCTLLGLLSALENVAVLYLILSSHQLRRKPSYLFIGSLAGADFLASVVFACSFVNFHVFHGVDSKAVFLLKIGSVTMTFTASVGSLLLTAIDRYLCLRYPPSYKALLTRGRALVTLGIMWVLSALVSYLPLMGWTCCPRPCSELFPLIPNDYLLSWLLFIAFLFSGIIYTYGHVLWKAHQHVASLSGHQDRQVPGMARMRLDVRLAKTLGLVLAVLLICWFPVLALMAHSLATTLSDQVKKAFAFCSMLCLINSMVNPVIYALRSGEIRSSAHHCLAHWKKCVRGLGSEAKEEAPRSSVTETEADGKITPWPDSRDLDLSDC
MEASUREMENT_NOTES: cell-based
EXPERIMENTAL_CONDITIONS: CB2, agonist mode; read-out: CB2 Agonist mode cAMP EC50
Numbers only, in nM.

Each of the following entries comes with a recorded value; kindly state EC50 for each.
1. O=C(O)CCCCC(c1ccccc1)c1cn(-c2ccccc2)c2ccccc12 (stereo not shown) [Compound 20]
2. O=C(O)CCCC(c1ccccc1)c1cn(-c2ccccc2)c2ccccc12 (stereo not shown) [Compound 19]
3. O=C(O)CC=C(c1ccccc1)c1cn(-c2ccccc2)c2ccccc12 (mixture of isomers) [Compound 16]
4. O=C(O)/C=C\C(c1ccccc1)c1cn(-c2ccccc2)c2ccccc12 (stereo not shown) [Compound 15]

505
654
359
1050

// each listed compound needs a value for EC50
1. O=C(O)CCC(c1ccccc1)c1cn(-c2ccccn2)c2ccccc12 (stereo not shown) [Compound 21]
2. O=C(O)CCC(c1ccccc1)c1cn(C(=O)c2ccccc2)c2ccccc12 (stereo not shown) [Compound 29]
3. Cc1ccc2c(C(CCC(=O)O)c3ccccc3)cn(-c3ccccc3)c2c1 (stereo not shown) [Compound 17]
4. O=C(O)CCC(c1ccccc1)c1cn(Cc2ccccc2)c2ccccc12 (stereo not shown) [Compound 18]
5. O=C(O)CCC(c1ccccc1)c1cn(-c2ccncc2)c2ccccc12 (stereo not shown) [Compound 23]

1110
419
1000
407
570

Short answer for O=C(O)CCC(c1ccccc1)c1cn(-c2cccnc2)c2ccccc12 (stereo not shown) [Compound 22] : EC50 was 731

---

TGT: hCB1 (Homo sapiens, UniProt P21554)
Sequence (P21554 whole entry): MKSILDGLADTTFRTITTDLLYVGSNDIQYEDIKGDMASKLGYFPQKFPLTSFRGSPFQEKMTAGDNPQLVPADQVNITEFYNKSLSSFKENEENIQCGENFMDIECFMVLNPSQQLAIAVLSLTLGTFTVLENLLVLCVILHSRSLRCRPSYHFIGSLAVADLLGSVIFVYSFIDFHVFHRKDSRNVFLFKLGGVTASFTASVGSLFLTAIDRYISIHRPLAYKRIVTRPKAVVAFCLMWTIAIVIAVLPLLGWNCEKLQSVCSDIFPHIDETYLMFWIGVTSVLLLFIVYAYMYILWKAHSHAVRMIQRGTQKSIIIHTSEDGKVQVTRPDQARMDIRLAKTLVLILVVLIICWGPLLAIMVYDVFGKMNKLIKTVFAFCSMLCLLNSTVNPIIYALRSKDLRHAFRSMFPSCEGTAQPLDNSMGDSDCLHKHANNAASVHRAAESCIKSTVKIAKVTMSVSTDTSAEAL
MEASUREMENT_NOTES: cell-based
Parameters: host or cells: CHO-K1
EXPERIMENTAL_CONDITIONS: read-out: CB1 PAM mode cAMP Emax, CB1, PAM mode
For each record, write down the corresponding Emax.
Answers are plain numbers, in %.

See these solved cases before continuing.
{"columns": ["COMPOUND", "Emax / %"],
 "data": [
  ["CCOC(=O)C(C(=O)O)C(c1ccccc1)c1cn(-c2ccccc2)c2ccccc12 (centres unmarked) [Compound 10]", 6.98],
  ["O=C(O)C(C(=O)O)C(c1ccccc1)c1cn(-c2ccccc2)c2ccccc12 (centres unmarked) [Compound 9]", 158],
  ["CC(CC(c1ccccc1)c1cn(-c2ccccc2)c2ccccc12)C(=O)O (racemic) [Compound 11]", 100],
  ["OCCCC(c1ccccc1)c1cn(-c2ccccc2)c2ccccc12 (centres unmarked) [Compound 34]", 0],
  ["O=C(O)C(c1ccccc1)c1cn(-c2ccccc2)c2ccccc12 (centres unmarked) [Compound 7]", 78.9],
  ["O=C(O)CCC(c1ccccc1)c1cn(-c2ccncc2)c2ccccc12 (centres unmarked) [Compound 23]", 104],
  ["O=C(O)CCC(c1ccccc1)c1cn(-c2cccnc2)c2ccccc12 (centres unmarked) [Compound 22]", 109],
  ["O=C(O)CCC(c1ccccc1)c1cn(C(=O)c2ccccc2)c2ccccc12 (centres unmarked) [Compound 29]", 114]
]}

Record Emax per entry; entries follow.
1. O=C(O)CC(c1ccccc1)c1cn(-c2ccccc2)c2ccccc12 (centres unmarked) [Compound 8]
2. OC(c1ccccc1)c1cn(-c2ccccc2)c2ccccc12 (centres unmarked) [Compound 30, Phenyl(1-phenyl-1H-indol-3-yl)methanol]

1: 144; 2: 0

---

Can you tell me Emax for the items I'm about to list?
TGT: hCB1 (Homo sapiens)
MEASUREMENT_NOTES: cell-based
Design: host or cells: CHO-K1 PathHunter
EXPERIMENTAL_CONDITIONS: read-out: CB1 PAM mode β-Arrestin Emax

Check out these entries, answers already filled in.
{"columns": ["COMPOUND", "Emax"],
 "data": [
  ["O=C(O)C(C(=O)O)C(c1ccccc1)c1cn(-c2ccccc2)c2ccccc12 (stereo not drawn)", "0%"],
  ["OCCCC(c1ccccc1)c1cn(-c2ccccc2)c2ccccc12 (stereo not drawn)", "5%"]
]}

Entry O=C(O)/C=C\C(c1ccccc1)c1cn(-c2ccccc2)c2ccccc12 (stereo not drawn) — recorded Emax = 0%

---

TGT: UniProt P21554
MEASUREMENT_NOTES: cell-based
Parameters: host or cells: CHO-K1
EXPERIMENTAL_CONDITIONS: CB1, agonist mode; read-out: CB1 Agonist mode cAMP EC50
Method: HitHunter cAMP assay: Inhibition of forskolin-stimulated cAMP was determined using the DiscoveRx HitHunter assay in hCB1R CHO-K1 cells. Cells (20,000 cells/well in low-volume 96 well plates) were incubated overnight in Opti-MEM (Invitrogen) containing 1% FBS at 37° C. and 5% CO2. […]
Give EC50 for every item shown.
One number for each entry, in nM.

Completed entries (count: 2):
{"columns": ["COMPOUND", "OUTPUT_UNIT", "VAL"],
 "data": [
  ["CC(CC(c1ccccc1)c1cn(-c2ccccc2)c2ccccc12)C(=O)O (racemic) [Compound 12]", "nM", 1060],
  ["O=C(O)CC=C(c1ccccc1)c1cn(-c2ccccc2)c2ccccc12 (mixture of isomers)", "nM", 689]
]}

Summary: O=C(O)CCC(c1ccccc1)c1cn(-c2cccnc2)c2ccccc12 (stereo not shown) , UniProt P21554, EC50 = 831

---

Hi there, I'd appreciate the recorded Emax for every entry that follows.
TGT: CB2 (Homo sapiens)
MEASUREMENT_NOTES: cell-based
EXPERIMENTAL_CONDITIONS: CB2, agonist mode; read-out: CB2 Agonist mode cAMP Emax
Answers are plain numbers, in %.

Here are 3 compounds together with their reported answers.
{"columns": ["COMPOUND", "Emax, %"],
 "data": [
  ["O=C(O)CC=C(c1ccccc1)c1cn(-c2ccccc2)c2ccccc12 (mixture of isomers)", 80],
  ["O=C(O)CCCC(c1ccccc1)c1cn(-c2ccccc2)c2ccccc12 (centres unmarked)", 95],
  ["Cc1ccc2c(C(CCC(=O)O)c3ccccc3)cn(-c3ccccc3)c2c1 (centres unmarked)", 74]
]}

Please give Emax for each item listed below.
1. O=C(O)CCC(c1ccccc1)c1c[nH]c2ccccc12 (centres unmarked)
2. O=C(O)CCC(c1ccccc1)c1cn(-c2cccnc2)c2ccccc12 (centres unmarked)
3. O=C(O)CCC(c1ccccc1)c1cn(C(=O)c2ccccc2)c2ccccc12 (centres unmarked)
4. O=C(O)/C=C\C(c1ccccc1)c1cn(-c2ccccc2)c2ccccc12 (centres unmarked)
5. O=C(O)CCC(c1ccccc1)c1cn(Cc2ccccc2)c2ccccc12 (centres unmarked)
6. O=C(O)CCCCC(c1ccccc1)c1cn(-c2ccccc2)c2ccccc12 (centres unmarked)

1. 29
2. 68
3. 76
4. 81
5. 64
6. 98

For each of the items listed, what is its Emax?
1. O=C(O)CCC(c1ccccc1)c1cn(-c2ccncc2)c2ccccc12 (centres unmarked)
2. O=C(O)CCC(c1ccccc1)c1cn(-c2ccccn2)c2ccccc12 (centres unmarked)

1. 78
2. 85

---

TGT: hCB1 (Homo sapiens)
MEASUREMENT_NOTES: cell-based
Set-up: host or cells: CHO-K1
EXPERIMENTAL_CONDITIONS: read-out: CB1 Agonist mode cAMP Emax, CB1, agonist mode
Description: HitHunter cAMP assay: Inhibition of forskolin-stimulated cAMP was determined using the DiscoveRx HitHunter assay in hCB1R CHO-K1 cells. Cells (20,000 cells/well in low-volume 96 well plates) were incubated overnight in Opti-MEM (Invitrogen) containing 1% FBS at 37° C. and 5% CO2. […]
Would you kindly list Emax for each of these molecules?
Answers are plain numbers, in %.

Illustrative cases are given below, each with its answer.
{"columns": ["MOLECULE", "Emax, %"],
 "data": [
  ["CC(CC(c1ccccc1)c1cn(-c2ccccc2)c2ccccc12)C(=O)O (racemic) [Compound 11]", 62],
  ["O=C(O)CCC(c1ccccc1)c1cn(C(=O)c2ccccc2)c2ccccc12 (stereo not shown) [Compound 29]", 92],
  ["O=C(O)CCC(c1ccccc1)c1c[nH]c2ccccc12 (stereo not shown) [Compound 28, 4-(1H-Pndol-3-yl)-4-phenylbutanoic acid]", 60],
  ["O=C(O)CCC(c1ccccc1)c1cn(Cc2ccccc2)c2ccccc12 (stereo not shown) [Compound 18]", 87],
  ["O=C(O)CCCC(c1ccccc1)c1cn(-c2ccccc2)c2ccccc12 (stereo not shown) [Compound 19]", 98],
  ["O=C(O)/C=C\\C(c1ccccc1)c1cn(-c2ccccc2)c2ccccc12 (stereo not shown) [Compound 15]", 86],
  ["Cc1ccc2c(C(CCC(=O)O)c3ccccc3)cn(-c3ccccc3)c2c1 (stereo not shown) [Compound 17]", 73],
  ["O=C(O)CC=C(c1ccccc1)c1cn(-c2ccccc2)c2ccccc12 (mixture of isomers) [Compound 16]", 94]
]}

Report Emax for each item below.
1. O=C(O)CCCCC(c1ccccc1)c1cn(-c2ccccc2)c2ccccc12 (stereo not shown) [Compound 20]
2. O=C(O)CCC(c1ccccc1)c1cn(-c2ccccn2)c2ccccc12 (stereo not shown) [Compound 21]
3. O=C(O)CCC(c1ccccc1)c1cn(-c2ccncc2)c2ccccc12 (stereo not shown) [Compound 23]
4. CC(=O)CC(C)C(c1ccccc1)c1cn(-c2ccccc2)c2ccccc12 (stereo not shown) [Compound 41]
5. O=C(O)CCC(c1ccccc1)c1cn(-c2cccnc2)c2ccccc12 (stereo not shown) [Compound 22]

[96, 95, 83, 0, 87]
